System: U2OS
Assay: Multiplex assay against U2OS
Type: toxicity, cell-based
Settings: human, 12 h, 1 µM, compound concentration 1 uM, replicate 1
The label is Met for Population Mitochondria Different-Phenotype (%) below 10% and Not met for Population Mitochondria Different-Phenotype (%) equal to or exceeding 10%.

Please state whether Population Mitochondria Different-Phenotype (%) is below 10% for CN1CCCC(n2nc(Cc3ccc(Cl)cc3)c3ccccc3c2=O)CC1.Cl (stereo unspecified) [AZELASTINE HYDROCHLORIDE] Not met

# iterate: Cc1csc2c(N[C@@H](C)CN3CCN(S(=O)(=O)c4ccc(Cl)c(Cl)c4)CC3)ncnc12 Not met

# iterate: CCN(CC)CCCCNc1ncc2cc(-c3cc(OC)cc(OC)c3)c(NC(=O)NC(C)(C)C)nc2n1 Not met

---

System: U2OS
Assay: Multiplex assay against U2OS
Format: toxicity, cell-based
Details: human, 12 h, 10 µM, compound concentration 10 uM, replicate 1
Recorded Metric: Population Healthy Nuclei (%)
Give the value, in units of %, as a plain number.

Example entries and their recorded answers appear below.
• c1cn2cc(-c3ccc4cn[nH]c4c3)nc(Nc3ccc(N4CCOCC4)cc3)c2n1 = 7
• COc1cccc([C@@H](C)NCCCc2ccccc2Cl)c1.Cl [TECALCET HYDROCHLORIDE] = 64
• CCN(CC)CCCCNc1ncc2cc(-c3cc(OC)cc(OC)c3)c(NC(=O)NC(C)(C)C)nc2n1 = 52
• CN(C)CC#Cc1ccc(OCCCc2sc(N3CCc4cccc(C(=O)Nc5nc6ccccc6s5)c4C3)nc2C(=O)O)c(F)c1 = 55
• CN(C)C(=O)N[C@H]1CC[C@H](CCN2CCN(c3cccc(Cl)c3Cl)CC2)CC1.Cl [CARIPRAZINE HYDROCHLORIDE] = 59

What value of Population Healthy Nuclei (%) has been recorded for this entry: Cc1c(-c2ccc(O)cc2)n(Cc2ccc(OCCN3CCCCCC3)cc2)c2ccc(O)cc12 43

---

Test system: HEK-293T
Experiment: Incucyte cell viability with HEK293T; also: filed as whole numbers so only -1 and 0 and 1 occur
Format: toxicity, cell-based
Conditions: human, 0 h, 10 µM, compound concentration 10 uM, replicate number 1, timepoint 0 hours
Recorded Metric: Growth Rate
Reply: number alone, nothing else.

Example entries and their recorded answers appear below.
- CCc1cc(C(C)=O)c(O)cc1OCCCCCC(C)(C)c1nn[nH]n1: 0
- CC1=C(C#N)C(c2ccc3[nH]nc(C)c3c2)C(C#N)=C(C)N1: 0
- O=C(NCc1ncc(C(F)(F)F)cc1Cl)c1ccc2c(c1)C1(CCS(=O)(=O)CC1)[C@H](C1CC1)N2S(=O)(=O)c1ccc(F)cc1: 0
- CC(C)C(=O)Nc1n[nH]c2cc(-c3cccc(NS(=O)(=O)C4CC4)c3)ccc12: 0
- Nc1nc(NCc2ccccc2)nc(-c2ccccc2CO)n1: 1

Proceed to the following item.
# value lookup — system HEK-293T, readout Growth Rate, item O=C(NCc1ccccc1)c1ccc(S(=O)(=O)NCc2ccccc2)cc1 0

---

Test system: Fibroblast
Test: Multiplex assay against human fibroblast
Assay type: toxicity, cell-based
Details: 24 h, 1 µM, compound concentration 1 uM, replicate 2
Everything with Population Mitochondria Different-Phenotype (%) lower than 10% is F; everything else, including exactly 10%, is T.

Check this compound for Population Mitochondria Different-Phenotype (%) at or above 10%: C=CC(=O)Nc1cc2c(Nc3ccc(F)c(Cl)c3)ncnc2cc1OCCCN1CCOCC1.Cl.Cl [CANERTINIB DIHYDROCHLORIDE] T

# iterate: Cc1[nH]c(/C=C2\C(=O)Nc3ccc(S(=O)(=O)N(C)c4cccc(Cl)c4)cc32)c(C)c1C(=O)N1CCN(C)CC1 T

# iterate: CN1CCC[C@@H]1CCO[C@](C)(c1ccccc1)c1ccc(Cl)cc1.O=C(O)/C=C/C(=O)O [CLEMASTINE FUMARATE] T

# iterate: CN1CCCC(n2nc(Cc3ccc(Cl)cc3)c3ccccc3c2=O)CC1.Cl (stereo unspecified) [AZELASTINE HYDROCHLORIDE] T

# iterate: CNc1nc(NCc2ccc(NS(C)(=O)=O)cc2Cl)cc(-c2ccccn2)n1 T

# iterate: CC[C@H](C)C(=O)O[C@H]1C[C@@H](C)C=C2C=C[C@H](C)[C@H](CC[C@@H]3C[C@@H](O)CC(=O)O3)[C@H]21 F
